# system-tested: T1, cynomolgus monkey CD40 (cynomolgus monkey, UniProt P25942 21-193 (human entry), limits assumed)
# T1 chain: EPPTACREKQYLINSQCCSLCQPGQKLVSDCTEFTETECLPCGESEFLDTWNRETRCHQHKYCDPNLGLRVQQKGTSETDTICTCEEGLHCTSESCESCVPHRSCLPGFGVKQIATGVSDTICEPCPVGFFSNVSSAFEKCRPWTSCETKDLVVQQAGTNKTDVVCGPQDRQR
# measurement-protocol: Octet
# Method: The binding affinity of anti-human CD40 antibodies to human and cynomolgus monkey CD40 was measured by Octet assay (Table 3), quantifying association rate (Kon), disassociation rate (Kdis), and equilibrium binding constant (KD). Cross-reactivity of anti-CD40 antibodies to related TNF receptor superfamily (TNFRSF) members was evaluated by expressing human TNFR1, TNFR2, TNFR10, or TNFR14 on HEK293 cells by transient transfection of expression vectors encoding these genes. […]
measurement-name: kon (M⁻¹ s⁻¹)
# number only, unit M⁻¹ s⁻¹ dropped from output

Param item = 30A12 (antibody, IgG4, V domains shown, also called 4878-1) VH: EVQLLESGGGLVQPGGSLRLSCAASGFTFSRNAMSWVRQAPGKGLEWVSATGGSGISTYYADSVKGRFTISRDNSKNTLYLQMNSLRAEDTAVYYCARGYSNSWWYFDYWGQGTLVTVSS VL: QSALTQPASVSGSPGQSITISCTGTSSDVGNYNLVSWYQQHPGKAPKLMIFEVNQRPSGVSNRFSGSKSGTTASLTISGLQAADEADYFCCSYTTSSTYVIFGGGTKLTVLG ; retrieve measured kon.
544000

For the next question, use this binder.
Param item = 39C2 (antibody, IgG4, V domains shown, also called 4887-1) VH: QVQLVQSGTEVKKPGASVKVSCKASGYTFPGYYMHWVRQAPGQGLEWMGWINPDSGGTKYTQKFQGRVTLTRDASVSTAYIDLNRLRSDDTAVYYCARERCRTTNCYLDYWGQGSLVTVSS VL: QSALTQPASVSGSPGQSITISCTGTSSDVGNYNLVSWYQQHPGKAPKLMIYEVNRRPSGVSNRFSGSKSGNTASLTISGLQAEDEAEYYCCSYAGRDTFVVFGGGTKLTVLG ; retrieve measured kon.
518000
